Ref: patent US9623123B2

assay: UV-visible absorption and fluorescence spectra, fluorescence quantum yields in solution; type: physicochemical; conditions: CH2Cl2 solution (Table 2, Example 2)
Reported property: Emission maxima (nm)

INSERT INTO measurements (molecular_string, reported_property, numeric_result) VALUES
  ('COc1ccc(C2=C3C(C)=C(I)C(C)=[N+]3[B-](F)(F)n3c(C)c(I)c(C)c32)cc1', 'Emission maxima', 548),
  ('COc1ccc(C2=C3C(C)=CC(C)=[N+]3[B-](F)(F)n3c(C)cc(C)c32)cc1', 'Emission maxima', 510),
  ('COc1cc(C2=C3C(C)=C(I)C(C)=[N+]3[B-](F)(F)n3c(C)c(I)c(C)c32)cc(OC)c1OC', 'Emission maxima', 549),
  ('CC1=C(I)C(C)=[N+]2C1=C(c1c(C)cccc1C)c1c(C)c(I)c(C)n1[B-]2(F)F', 'Emission maxima', 549),
  ('COc1cc(C2=C3C(C)=CC(C)=[N+]3[B-](F)(F)n3c(C)cc(C)c32)cc(OC)c1OC', 'Emission maxima', 511),
  ('CC1=CC(C)=[N+]2C1=C(c1c(C)cccc1C)c1c(C)cc(C)n1[B-]2(F)F', 'Emission maxima', 510);

---

Experiment: Fluorescence lifetime measurement
Format: physicochemical
Conditions: methylene chloride solution (Table 10, Example 14)
Experimental: ^1H NMR and ^13C NMR spectra were taken on a 400 MHz Varian Unity Inova spectrophotometer instrument. ^1H and ^13C NMR spectra were recorded in CDCl3, and chemical shifts (5) are given in ppm relative to solvent peaks (at 7.24 ppm for ^1H spectra and at 77.3 for ^13C spectra) as internal standard. UV spectra were taken on a Hewlett-Packard 8452A Diode Array UV-visible spectrophotometer. Fluorescence spectra were recorded on a Spex Fluorolog 1681 0.22 m steady-state fluorometer. […]
Reported property: Fluorescence lifetime (ns)

Some solved entries appear below for comparison.
INSERT INTO assay_data (molecular_string, reading_unit, numeric_result) VALUES
  ('CCCCCCCCCCCCOc1ccc(C2=C3C(C)=CC(C)=[N+]3[B-](F)(F)n3c(C)cc(C)c32)cc1OCCCCCCCCCCCC', 'ns', 4.1),
  ('CCCCCCCCCCCCOc1ccc(C2=C3C(C)=C(I)C(C)=[N+]3[B-](F)(F)n3c(C)c(I)c(C)c32)cc1', 'ns', 0.13),
  ('C#CC1=C(C)C2=C(c3ccc(OCCCCCCCCCCCC)cc3)c3c(C)c(C#C)c(C)n3[B-](F)(F)[N+]2=C1C', 'ns', 4.2);

P. CCCCCCCCCCCCOc1ccc(C2=C3C(C)=C(C#C[Si](C)(C)C)C(C)=[N+]3[B-](F)(F)n3c(C)c(C#C[Si](C)(C)C)c(C)c32)cc1OCCCCCCCCCCCC
Q. CCCCCCCCCCCCOc1ccc(C2=C3C(C)=C(I)C(C)=[N+]3[B-](F)(F)n3c(C)c(I)c(C)c32)cc1OCCCCCCCCCCCC
QUERY: Sorting by Fluorescence lifetime in descending order, would P or Q appear first? Use the label to indicate which entry you chose.
RESULT: P
(P: 5.2 ns, Q: 0.08 ns)

I. C#CC1=C(C)C2=C(c3ccc(OCCCCCCCCCCCC)c(OCCCCCCCCCCCC)c3)c3c(C)c(C#C)c(C)n3[B-](F)(F)[N+]2=C1C
II. CCCCCCCCCCCCOc1ccc(C2=C3C(C)=CC(C)=[N+]3[B-](F)(F)n3c(C)cc(C)c32)cc1
QUERY: Sorting by Fluorescence lifetime in descending order, would I or II appear first? Use the label to indicate which entry you chose.
RESULT: I
(I: 5.9 ns, II: 3.8 ns)

---

assay: UV-visible absorption and fluorescence spectra, fluorescence quantum yields in solution; type: physicochemical; settings: DMF solution (Table 3, Example 2)
Reported property: Emission maxima (nm)

INSERT INTO assay_data (compound, reported_property, numeric_result) VALUES
  ('COc1ccc(C2=C3C(C)=CC(C)=[N+]3[B-](F)(F)n3c(C)cc(C)c32)cc1 [Compound 14]', 'Emission maxima', 510),
  ('COc1ccc(C2=C3C(C)=C(I)C(C)=[N+]3[B-](F)(F)n3c(C)c(I)c(C)c32)cc1 [Compound 15]', 'Emission maxima', 551),
  ('CC1=C(I)C(C)=[N+]2C1=C(c1c(C)cccc1C)c1c(C)c(I)c(C)n1[B-]2(F)F [Compound 19]', 'Emission maxima', 552),
  ('CC1=CC(C)=[N+]2C1=C(c1c(C)cccc1C)c1c(C)cc(C)n1[B-]2(F)F [Compound 18]', 'Emission maxima', 510),
  ('COc1cc(C2=C3C(C)=C(I)C(C)=[N+]3[B-](F)(F)n3c(C)c(I)c(C)c32)cc(OC)c1OC [Compound 10]', 'Emission maxima', 551),
  ('COc1cc(C2=C3C(C)=CC(C)=[N+]3[B-](F)(F)n3c(C)cc(C)c32)cc(OC)c1OC [Compound 9]', 'Emission maxima', 511);

---

experiment: UV-visible absorption and fluorescence spectra, fluorescence quantum yields in solution; format: physicochemical; details: DMF solution; fluorescein reference (Example 2)
Reported property: Quantum yield (%)

Some solved entries appear below for comparison.
INSERT INTO results (compound, reported_property, numeric_result) VALUES
  ('CC1=C(I)C(C)=[N+]2C1=C(c1c(C)cccc1C)c1c(C)c(I)c(C)n1[B-]2(F)F [Compound 19]', 'Quantum yield', 4.4),
  ('COc1cc(C2=C3C(C)=CC(C)=[N+]3[B-](F)(F)n3c(C)cc(C)c32)cc(OC)c1OC [Compound 9]', 'Quantum yield', 55.3),
  ('CC1=CC(C)=[N+]2C1=C(c1c(C)cccc1C)c1c(C)cc(C)n1[B-]2(F)F [Compound 18]', 'Quantum yield', 73.8);

1. COc1ccc(C2=C3C(C)=C(I)C(C)=[N+]3[B-](F)(F)n3c(C)c(I)c(C)c32)cc1 [Compound 15]
2. COc1ccc(C2=C3C(C)=CC(C)=[N+]3[B-](F)(F)n3c(C)cc(C)c32)cc1 [Compound 14]
3. COc1cc(C2=C3C(C)=C(I)C(C)=[N+]3[B-](F)(F)n3c(C)c(I)c(C)c32)cc(OC)c1OC [Compound 10]
QUERY: List the 3 entries from lowest Quantum yield to highest Quantum yield value. Answer format: list of labels, ordered as asked.
RESULT: 3, 1, 2
(3: 3.4%, 1: 4.9%, 2: 71.6%)

---

experiment: UV-visible absorption and fluorescence spectra, fluorescence quantum yields in solution; format: physicochemical; settings: methylene chloride solution; fluorescein standard (Table 10, Example 14)
Reported property: Quantum yield (%)

Some solved entries appear below for comparison.
INSERT INTO assay_data (molecule, reading_unit, numeric_result) VALUES
  ('CCCCCCCCCCCCOc1ccc(C2=C3C(C)=CC(C)=[N+]3[B-](F)(F)n3c(C)cc(C)c32)cc1OCCCCCCCCCCCC [Compound 3b]', '%', 81),
  ('CCCCCCCCCCCCOc1ccc(C2=C3C(C)=C(C#C[Si](C)(C)C)C(C)=[N+]3[B-](F)(F)n3c(C)c(C#C[Si](C)(C)C)c(C)c32)cc1OCCCCCCCCCCCC [Compound 5b]', '%', 79),
  ('CCCCCCCCCCCCOc1ccc(C2=C3C(C)=CC(C)=[N+]3[B-](F)(F)n3c(C)cc(C)c32)cc1 [Compound 3a]', '%', 76),
  ('C#CC1=C(C)C2=C(c3ccc(OCCCCCCCCCCCC)c(OCCCCCCCCCCCC)c3)c3c(C)c(C#C)c(C)n3[B-](F)(F)[N+]2=C1C [Compound 6b]', '%', 67),
  ('CCCCCCCCCCCCOc1ccc(C2=C3C(C)=C(I)C(C)=[N+]3[B-](F)(F)n3c(C)c(I)c(C)c32)cc1 [Compound 4a]', '%', 5.8),
  ('CCCCCCCCCCCCOc1ccc(C2=C3C(C)=C(C#C[Si](C)(C)C)C(C)=[N+]3[B-](F)(F)n3c(C)c(C#C[Si](C)(C)C)c(C)c32)cc1 [Compound 5a]', '%', 71);

I. C#CC1=C(C)C2=C(c3ccc(OCCCCCCCCCCCC)cc3)c3c(C)c(C#C)c(C)n3[B-](F)(F)[N+]2=C1C [Compound 6a]
II. CCCCCCCCCCCCOc1ccc(C2=C3C(C)=C(I)C(C)=[N+]3[B-](F)(F)n3c(C)c(I)c(C)c32)cc1OCCCCCCCCCCCC [Compound 4b]
QUERY: Sorting by Quantum yield in descending order, would I or II appear first? Use the label to indicate which entry you chose.
RESULT: I

---

assay: UV-visible absorption and fluorescence spectra, fluorescence quantum yields in solution; format: physicochemical; details: methylene chloride solution (Table 9, Example 13)
Reported property: Stokes shift (nm)

Some solved entries appear below for comparison.
INSERT INTO measurements (molecule, reported_property, numeric_result) VALUES
  ('CCCCCCCCCCCCOc1ccc(C2=C3C(C)=C(C#C[Si](C)(C)C)C(C)=[N+]3[B-](F)(F)n3c(C)c(C#C[Si](C)(C)C)c(C)c32)cc1OCCCCCCCCCCCC [Compound 5b]', 'Stokes shift', 15),
  ('CCCCCCCCCCCCOc1ccc(C2=C3C(C)=C(I)C(C)=[N+]3[B-](F)(F)n3c(C)c(I)c(C)c32)cc1 [Compound 4a]', 'Stokes shift', 15),
  ('CCCCCCCCCCCCOc1cc(C2=C3C(C)=C(I)C(C)=[N+]3[B-](F)(F)n3c(C)c(I)c(C)c32)cc(OCCCCCCCCCCCC)c1OCCCCCCCCCCCC [Compound 4c]', 'Stokes shift', 15);

I. CCCCCCCCCCCCOc1ccc(C2=C3C(C)=C(C#C[Si](C)(C)C)C(C)=[N+]3[B-](F)(F)n3c(C)c(C#C[Si](C)(C)C)c(C)c32)cc1 [Compound 5a]
II. CCCCCCCCCCCCOc1ccc(C2=C3C(C)=CC(C)=[N+]3[B-](F)(F)n3c(C)cc(C)c32)cc1 [Compound 3a]
QUERY: Sorting by Stokes shift in descending order, would I or II appear first? Use the label to indicate which entry you chose.
RESULT: I
(I: 15 nm, II: 8 nm)
